Measured values drawn from patent US20040038965A1 for this set.

UniProtKB P07711: reported Ki for various compounds.
Sequence (P07711 114-333): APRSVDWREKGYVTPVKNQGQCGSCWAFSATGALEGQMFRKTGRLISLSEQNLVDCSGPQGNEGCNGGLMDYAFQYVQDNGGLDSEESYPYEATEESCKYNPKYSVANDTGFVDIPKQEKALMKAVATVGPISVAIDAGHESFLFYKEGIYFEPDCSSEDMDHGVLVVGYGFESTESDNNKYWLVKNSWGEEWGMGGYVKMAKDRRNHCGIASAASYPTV
Note: unit nM is implicit; provide only the numeric part.

{"Input smiles": "O=C(NC1(C(=O)N[C@H]2CCCN(S(=O)(=O)c3ccccn3)CC2=O)CCCCC1)c1cc2ccccc2o1", "Target desc": "UniProtKB P07711", "Ki [nM]": 239}

Q. Which Ki is reported with UniProtKB P07711 for this entry: C[C@@H]1CC[C@H](NC(=O)C2(NC(=O)c3cc4sccc4s3)CCCCC2)C(=O)CN1S(=O)(=O)c1ccccn1 ?
A. 69

----------
# Target desc: human Cathepsin S (Homo sapiens, UniProt P25774)
# Sequence (P25774 115-331): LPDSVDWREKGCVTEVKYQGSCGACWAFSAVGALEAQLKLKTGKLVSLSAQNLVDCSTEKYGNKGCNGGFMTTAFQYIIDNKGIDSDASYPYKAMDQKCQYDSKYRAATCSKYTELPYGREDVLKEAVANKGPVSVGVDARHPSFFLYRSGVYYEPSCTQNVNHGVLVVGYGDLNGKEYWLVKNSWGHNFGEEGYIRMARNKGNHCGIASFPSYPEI
Readout: pKi
Expect pKi as a plain number equal to -log10 of the molar concentration.

Q. Which pKi is reported with human Cathepsin S (Homo sapiens, UniProt P25774) for this entry: O=C(NC1(C(=O)N[C@H]2CCCN(S(=O)(=O)c3ccccn3)CC2=O)CCCCC1)c1cc2sccc2s1 (racemic) ?
A. 6.20

----------
# Target desc: UniProt P07858
Readout: pKi
Expect pKi as a plain number equal to -log10 of the molar concentration.

Q. Which pKi is reported with UniProt P07858 for this entry: O=C(NC1(C(=O)N[C@H]2CCCN(S(=O)(=O)c3ccccn3)CC2=O)CCCCC1)c1cc2ccccc2o1 [Example 1] ?
A. 6.03
